B1: Hairpin Ribozyme (parent)
chain: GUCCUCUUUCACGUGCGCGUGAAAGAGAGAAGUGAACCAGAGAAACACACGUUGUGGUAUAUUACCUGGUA

- Variants of: B1
- test: self-cleavage, relative activity (ratio to wild type); higher = more cleavage; co-transcriptional
I'd be grateful if you could share measured self-cleavage for these entries.
Numbers only.

{"columns": ["mutation", "self-cleavage"],
 "data": [
  ["G1C G34C", 0.211]
]}

# per-item lookup of self-cleavage; items listed below
1. A24U A31G
2. A23C C66U
3. A23U U33A
4. C50U U63A
5. G29U C66G

Reply:
[0.392, 0.448, 0.153, 0.172, 0.233]

Give measured self-cleavage for every item shown.
1. U33C A39C
2. C4A G27A
3. U9A U55C
4. A49G G51U
5. A24U G29U

Reply:
0.171
0.285
0.179
0.532
0.0631

Each variant below has a recorded value; state its self-cleavage.
1. A49G G68C
2. U8C U9C
3. U5C G51U
4. G21U G69U
5. A47U A61U
6. C12A A64G
7. G1C A44G

Reply:
0.307
0.275
0.704
0.211
0.211
0.411
0.0352

Would you be so kind as to report self-cleavage for each listed record?
1. U33A C38G
2. U7A U60C
3. A36C C65A
4. A11G G56U

Reply:
[0.128, 0.923, 0.52, 0.105]
